Hi there, I'd appreciate the recorded pIC50 for every entry that follows.
# TEST TARGET: enkephalinase (Rattus norvegicus, UniProt P07861)
# Construct: Male Std:Wistar rats were decapitated and the striata were removed
# Sequence (P07861 whole entry): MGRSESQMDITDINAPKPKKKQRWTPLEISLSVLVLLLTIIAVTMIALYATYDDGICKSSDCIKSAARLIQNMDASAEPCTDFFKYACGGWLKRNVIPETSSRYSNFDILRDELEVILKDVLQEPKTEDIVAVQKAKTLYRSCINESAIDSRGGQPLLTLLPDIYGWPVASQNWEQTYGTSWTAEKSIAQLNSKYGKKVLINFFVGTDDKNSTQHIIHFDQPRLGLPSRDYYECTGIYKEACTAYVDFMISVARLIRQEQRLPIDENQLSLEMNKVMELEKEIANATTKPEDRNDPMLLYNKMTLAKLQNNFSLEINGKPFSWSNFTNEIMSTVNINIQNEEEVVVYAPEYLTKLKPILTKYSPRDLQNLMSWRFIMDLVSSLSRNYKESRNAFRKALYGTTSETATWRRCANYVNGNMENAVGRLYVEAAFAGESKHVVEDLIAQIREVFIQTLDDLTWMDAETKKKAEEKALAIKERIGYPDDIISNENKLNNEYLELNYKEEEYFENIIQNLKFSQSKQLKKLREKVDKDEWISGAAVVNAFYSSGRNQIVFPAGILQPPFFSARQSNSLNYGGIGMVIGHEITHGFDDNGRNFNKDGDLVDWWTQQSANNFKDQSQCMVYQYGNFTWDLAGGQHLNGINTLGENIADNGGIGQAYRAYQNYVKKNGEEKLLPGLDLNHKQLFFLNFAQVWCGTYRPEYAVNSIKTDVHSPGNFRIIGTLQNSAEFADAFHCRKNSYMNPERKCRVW
# ASSAY PROTOCOL: Enkephalinase inhibitory activity in vitro ([³H]-leucine-enkephalin degradation)
# RUN CONDITIONS: rat striatum enkephalinase; substrate [³H]-leucine-enkephalin 20 nM; 1 hour at 37°C; read-out: IC₅₀
Give bare numbers, as −log10 of the molar value.

Worked set:
- Cc1c(NC(=O)C(CS)Cc2ccccc2)cccc1C(=O)O (centres unmarked): 8.12
- CC(C)CC(CS)C(=O)Nc1cccc(C(=O)O)c1 (centres unmarked): 8.08
- CCc1cc(NC(=O)C(CS)Cc2ccccc2)cc(C(=O)O)c1 (centres unmarked): 8.34
- Cc1cc(NC(=O)C(CS)Cc2ccccc2)cc(C(=O)O)c1 (centres unmarked): 8.27

As a next step, examine the compound that follows.
Bench note, enkephalinase (Rattus norvegicus, UniProt P07861): entry Cc1c(NC(=O)C(CS)CC(C)C)cccc1C(=O)O (centres unmarked) , its pIC50 = 8.11
